TARGET_OF_ASSAY: SIRT1 (Homo sapiens, UniProt Q96EB6)
Sequence (Q96EB6 whole entry): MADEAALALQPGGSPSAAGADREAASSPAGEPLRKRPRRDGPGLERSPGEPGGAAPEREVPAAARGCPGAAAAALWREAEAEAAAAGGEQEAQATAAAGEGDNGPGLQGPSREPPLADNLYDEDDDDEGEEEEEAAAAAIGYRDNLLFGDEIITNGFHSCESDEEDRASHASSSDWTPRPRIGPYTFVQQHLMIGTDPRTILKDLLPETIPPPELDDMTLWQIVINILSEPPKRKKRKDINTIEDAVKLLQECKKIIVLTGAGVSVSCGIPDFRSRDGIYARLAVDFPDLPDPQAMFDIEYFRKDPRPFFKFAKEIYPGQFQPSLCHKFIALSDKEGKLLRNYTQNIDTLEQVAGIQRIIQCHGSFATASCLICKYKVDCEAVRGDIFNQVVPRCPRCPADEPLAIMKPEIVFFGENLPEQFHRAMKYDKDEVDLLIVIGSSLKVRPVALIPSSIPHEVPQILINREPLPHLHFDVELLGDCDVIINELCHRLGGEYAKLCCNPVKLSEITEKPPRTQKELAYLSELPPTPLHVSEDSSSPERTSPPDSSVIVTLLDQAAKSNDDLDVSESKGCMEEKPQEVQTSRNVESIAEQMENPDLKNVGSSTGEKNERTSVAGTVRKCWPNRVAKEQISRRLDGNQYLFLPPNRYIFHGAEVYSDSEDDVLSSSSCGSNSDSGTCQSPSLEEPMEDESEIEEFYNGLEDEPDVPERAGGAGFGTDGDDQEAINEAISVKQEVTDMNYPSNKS
METHOD_SUMMARY: SIRT1 mass spectrometry (MS) based deacetylation assay
Type: biochemical
CONDITION_LABEL: SIRT1 activation, mass spectrometry assay; read-out: ED50 MS ASSAY
compounds and their reported EC50

Would you please look over these solved cases?
| COMPOUND | EC50 |
| --- | --- |
| O=C(Nc1ccccc1-c1nc2ccc(CN3CCNCC3)nc2s1)c1ccc2ccccc2n1 [Compound 729] | < 5 µM |
| COc1ccc(C(=O)Nc2cc(C(=O)N3CCNCC3)cc(-c3nc4ncccc4o3)c2)cc1OC [Compound 107] | 5 to 50 µM |
| COc1ccc(C(=O)Nc2ccc(-c3nc4cccnc4[nH]3)cc2)cc1OC [Compound 150] | < 5 µM |

Next:
I would be grateful if you could share the reported EC50 for COc1ccc(C(=O)Nc2cccc(-c3nc4cccnc4[nH]3)c2)cc1OC [Compound 185] .
< 5 µM
